Each recorded value in this set is attributed to patent US4414224A.

Items are presented alongside their recorded % Change HR (heart rate).
# Tested on: normal anesthetized dog
# TEST_NAME: Intravenous infusion in the normal anesthetized dog (MAP, RBF, RVR, HR)
# Type: in vivo
# CONDITION_NOTES: 30 μg/kg/min (base), i.v. infusion

COMPOUND: COc1ccc(CCN)c2c1NC(=O)C2.Cl [D]
% Change HR (heart rate), %: -2.8
//
COMPOUND: CCCN(CCC)CCc1ccc(OC)c2c1CC(=O)N2.Cl [B]
% Change HR (heart rate), %: -8.3
//
COMPOUND: Br.CCCN(CCC)CCc1ccc(O)c2c1CC(=O)N2 [A]
% Change HR (heart rate), %: -6.9
//
COMPOUND: Br.NCCc1ccc(O)c2c1CC(=O)N2 [C]
% Change HR (heart rate), %: -2.9
